System: Rattus norvegicus
Assay: Maximum percent decrease in heart rate of spontaneously hypertensive rats, 6 hours after peroral administration of 50 mg/kg of compound
Type: functional
Settings: route oral
quantity: Decrease (%)

chemical string: CCc1ncc2cc(-c3c(Cl)cccc3Cl)c(N)nc2n1
observed value: 15

chemical string: Cc1ncc2cc(-c3c(Br)cccc3Br)c(N)nc2n1
observed value: 28

chemical string: Cc1ncnc2nc(N)c(-c3c(Cl)cccc3Cl)cc12
observed value: 26

chemical string: Cc1nc(C)c2cc(-c3c(Cl)cccc3Cl)c(N)nc2n1
observed value: 32

chemical string: Nc1nc2nc(/C=C/c3ccccc3)ncc2cc1-c1c(Cl)cccc1Cl
observed value: 13
